Where these numbers come from: ChEMBL document CHEMBL4483862

System: Plasmodium berghei
METHOD: Luciferase/luciferin-expressing antifolate-resistant parasites were used to infect a culture of HepG2 cells that were pre-incubated with compounds. Infected hepatocytes emit light due to the luciferase reaction. Assay results are presented as the percent inhibition of light emission compared to control. […]
Type: functional
RECORDED_CONDITIONS: sporozoite, PBLUC_HILL_SLOPE 15.2, PBLUC_R_SQUARED 0.445, read-out: LUCIFERASE INFECTION ASSAY - IC50
ENDPOINT: IC50
Returns: string containing the numeric result and its unit.

INPUT: Form: Entry = Cc1ccc2cc(Cn3cc(Br)ccc3=O)c(Cl)nc2c1C | System = Plasmodium berghei | IC50 = ____
OUTPUT: 3.1 µM

---

Tested on: Plasmodium berghei
METHOD: Luciferase/luciferin-expressing antifolate-resistant parasites were used to infect a culture of HepG2 cells that were pre-incubated with compounds. Infected hepatocytes emit light due to the luciferase reaction. Assay results are presented as the percent inhibition of light emission compared to control. […]
Format: functional
RECORDED_CONDITIONS: sporozoite, read-out: LUCIFERASE INFECTION ASSAY - IC90
ENDPOINT: IC90

// solved cases for IC90 follow
>>> endpoint_value("O/N=C(\\c1ccc(Cl)cc1)c1cc2ccccc2o1")
"> 12.1 µM"
>>> endpoint_value("CC(=O)Nc1cccc(-c2cnc3ccc(-c4ccc(S(C)(=O)=O)cc4)nn23)c1")
"9.62 µM"
>>> endpoint_value("Cc1ccc(-n2c(SCC(=O)NCCN3C(=O)S/C(=C\\c4ccc(C(C)(C)C)cc4)C3=O)nc3sc4c(c3c2=O)CCCC4)c(C)c1")
"> 10 µM"
>>> endpoint_value("O=C(Nc1ccc(Cl)c(Cl)c1)n1ccc(C(F)(F)F)n1")
"> 10.2 µM"
>>> endpoint_value("O=C(Cn1ncc(Cl)c(Cl)c1=O)Nc1cc(S(=O)(=O)N2CCOCC2)ccc1Cl")
"3.74 µM"
>>> endpoint_value("O=C(N/N=C/c1ccc(N2CCCCC2)s1)c1ccccc1O")
"5.71 µM"
>>> endpoint_value("CCc1cccc2c(C(=O)COC(=O)C3CCN(S(=O)(=O)c4ccc(Cl)c(C(F)(F)F)c4)CC3)c[nH]c12")
"> 10 µM"
>>> endpoint_value("CNc1nc2cnc(Nc3ccccc3)cc2n1-c1cccc(C(F)(F)F)c1")
"> 10 µM"

INPUT: Entry COc1ccc(CN(CC(=O)NCCc2ccc(F)cc2)C(C)Cc2cccs2)cc1 (stereo not drawn) , system Plasmodium berghei: what IC90 was measured?
OUTPUT: > 10 µM

INPUT: Give the reported IC90 for CCN(CC)S(=O)(=O)c1cccc(C(=O)N/N=C(\C)c2cc(Cl)ccc2Cl)c1 (system: Plasmodium berghei).
OUTPUT: > 10 µM

INPUT: Report IC90 for COc1cccc(NC(=O)c2cc(C(C)(C)C)n(-c3ccccc3)c2C)c1 tested on Plasmodium berghei.
OUTPUT: > 9.1 µM

---

System: Plasmodium berghei
METHOD: Luciferase/luciferin-expressing antifolate-resistant parasites were used to infect a culture of HepG2 cells that were pre-incubated with compounds. Infected hepatocytes emit light due to the luciferase reaction. Assay results are presented as the percent inhibition of light emission compared to control. […]
Assay type: functional
RECORDED_CONDITIONS: sporozoite, read-out: LUCIFERASE INFECTION ASSAY - IC90
ENDPOINT: IC90

Known IC90 results, listed for orientation:
>>> endpoint_value("Cn1c(Nc2ccccc2)nc2cnc(-c3ccc(F)c(Cl)c3)cc21")
"> 10 µM"
>>> endpoint_value("COc1ccc(C)cc1NC(=O)c1ccc(NC(=O)Nc2ccccc2)s1")
"> 10 µM"
>>> endpoint_value("CC(C)N(C(=O)CSc1nnc(-c2cccc(S(=O)(=O)N3CCOCC3)c2)n1-c1ccc(F)cc1)c1ccccc1")
"> 10 µM"
>>> endpoint_value("COc1cc(/C=N/Nc2nc(Cl)c(Cl)cc2Cl)ccc1OCC(=O)N1CC(C)OC(C)C1 (configuration not stated)")
"> 10 µM"
>>> endpoint_value("CCCc1cc(=O)n2nc(COc3ccccc3)c(-c3ccccc3)c2[nH]1")
"5.37 µM"

INPUT: State its IC90 on Plasmodium berghei: COc1cc(/C=C/C(=O)c2ccc3[nH]c(=O)[nH]c3c2)cc(Cl)c1OC(F)F
OUTPUT: > 10 µM

INPUT: Value wanted: IC90 (Plasmodium berghei) of entry CC1CN(c2nc(N)c3c(N)nc4c(c3c2C#N)CC(=O)N4C2CCCC2)CC(C)O1 (configuration not stated)
OUTPUT: > 10 µM

INPUT: Observed IC90 on Plasmodium berghei for N#Cc1ccsc1NC(=O)COC(=O)c1c2c(nc3ccccc13)/C(=C/c1cccc([N+](=O)[O-])c1)CCC2 , please.
OUTPUT: > 10 µM
